- measurement target: hTRPV1 (Homo sapiens)
- Construct: expressed in transfected cells; host or cells: HEK293
- Sequence (Q8NER1 whole entry): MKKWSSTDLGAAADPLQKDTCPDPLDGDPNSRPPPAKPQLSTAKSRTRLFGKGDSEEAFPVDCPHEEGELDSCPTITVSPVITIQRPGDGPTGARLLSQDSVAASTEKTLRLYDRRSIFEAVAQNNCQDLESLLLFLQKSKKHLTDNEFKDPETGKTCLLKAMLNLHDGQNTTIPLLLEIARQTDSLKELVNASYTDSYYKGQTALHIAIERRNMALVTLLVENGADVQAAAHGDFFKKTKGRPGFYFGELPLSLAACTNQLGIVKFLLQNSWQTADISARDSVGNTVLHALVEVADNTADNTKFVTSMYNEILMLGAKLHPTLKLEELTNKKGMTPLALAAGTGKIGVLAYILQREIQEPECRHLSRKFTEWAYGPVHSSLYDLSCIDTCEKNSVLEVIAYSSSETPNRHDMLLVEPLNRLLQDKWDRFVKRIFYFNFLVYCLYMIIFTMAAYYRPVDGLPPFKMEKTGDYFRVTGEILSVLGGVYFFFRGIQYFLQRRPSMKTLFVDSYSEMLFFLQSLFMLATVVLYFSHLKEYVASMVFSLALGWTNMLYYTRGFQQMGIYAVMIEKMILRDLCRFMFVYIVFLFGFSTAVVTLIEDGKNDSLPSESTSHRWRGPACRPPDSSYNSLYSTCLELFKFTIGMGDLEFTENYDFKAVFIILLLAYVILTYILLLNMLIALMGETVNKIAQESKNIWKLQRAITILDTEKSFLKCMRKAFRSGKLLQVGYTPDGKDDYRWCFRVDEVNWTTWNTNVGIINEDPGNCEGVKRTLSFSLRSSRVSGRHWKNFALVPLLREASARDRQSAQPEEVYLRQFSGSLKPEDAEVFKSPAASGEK
- test protocol: Human TRPV1 (hTRPV1) functional assay, FLIPR intracellular Ca2+, capsaicin challenge
- Assay type: cell-based
- condition details: test concentration of 0.5 μm; HEK293 cells expressing hTRPV1, capsaicin 0.030 μM challenge; read-out: percent inhibition (symbol a)
value type: inhibition at 0.5 µM (%)

Below, 8 molecules whose answers are already recorded.
CNS(=O)(=O)c1ccc(-c2ccc3[nH]c(COc4ccc(C(F)(F)F)cc4)nc3c2)cc1 :: 11
NS(=O)(=O)c1c(F)cc(F)cc1-c1ccc2[nH]c(COc3ccc(C(F)(F)F)cc3)nc2c1 :: 100
CS(=O)(=O)Nc1cccc(-c2ccc3[nH]c(COc4ccc(C(F)(F)F)cc4)nc3c2)c1 :: 8
CC(C)(O)c1ccccc1-c1ccc2[nH]c(COc3ccc(C(F)(F)F)cc3)nc2c1 :: 99
COC(=O)c1ccc(-c2ccc3[nH]c(COc4ccc(C(F)(F)F)cc4)nc3c2)cc1 :: 5
NS(=O)(=O)c1ccc(F)cc1-c1ccc2[nH]c(COc3ccc(C(F)(F)F)cc3)nc2c1 :: 98
NS(=O)(=O)c1ccccc1-c1ccc2[nH]c(COc3ccc(Cl)c(C(F)(F)F)c3)nc2c1 :: 99
NS(=O)(=O)c1cccc(-c2ccc3[nH]c(COc4ccc(C(F)(F)F)cc4)nc3c2)c1 :: 8

a. COC(=O)c1ccccc1-c1ccc2[nH]c(COc3ccc(C(F)(F)F)cc3)nc2c1
b. Cc1cccc(-c2ccc3[nH]c(COc4ccc(C(F)(F)F)cc4)nc3c2)c1
q: Returns the identifier with the smallest measured inhibition at 0.5 µM among a and b . // output: label of the selected item
a: b
(b: 10%, a: 85%)
